# Test system: L1210 leukemia ip in BDF1 mice, survival T/C
# experiment: NCI In Vivo Anticancer Drug Screen. Data for tumor model L1210 Leukemia (intraperitoneal) in B6D2F1 (BDF1) mice
# setup_conditions: endpoint: mean survival time; dose: 200.0 mg/kg/injection; schedule: Q04DX003 (ip); vehicle: saline with Tween-80; higher = longer survival
Inconclusive results and toxic doses are left out.
readout_type: T/C

> print(dat)
                                   compound        test.value
1         [O-]c1on[n+](C2CCCCC2)c1-c1ccccc1   91 % of control
2  Cc1ccc(Sc2cccc3c2C(=O)c2c(Sc4ccc(C)cc4)cccc2C3(Br)c2ccccc2)cc1   97 % of control
3                      C=C(C)c1ccc(C)c(C)c1   95 % of control
4  COC(=O)C1OCOC2C(CO)OCOC12 (stereo unspecified)   86 % of control
5                 O=C(O)CSCc1nc2ccccc2[nH]1   92 % of control
6  CSc1ccc(NC(=O)Oc2ccc(C(=O)OCc3ccccc3)cc2)cc1  103 % of control
